Each entry below carries its measured MIC, system: E. coli (MC4100).
Write down the numeric answer in µM and omit the unit.

Please give the measured MIC for this compound: CCCCCCCCCCCCCC[P+](CC)(CC)CC[P+](CC)(CC)CCCCCCCCCCCCCC [^EtP2P-14,14]
8

Subsequent entry: CCCCCCCCCCCC[P+](CC[P+](CCCCCCCCCCCC)(C1CCCCC1)C1CCCCC1)(C1CCCCC1)C1CCCCC1 [^CyP2P-12,12]
8

Subsequent entry: CCCCCCCCCC[P+](CC[P+](CCCCCCCCCC)(C1CCCCC1)C1CCCCC1)(C1CCCCC1)C1CCCCC1 [^CyP2P-10,10]
8
